Record form. Attribute: zone of inhibition at 50 µg/mL. Fill in for each entry.
test system: Pseudomonas aeruginosa; assay: Antimicrobial activity against Pseudomonas aeruginosa at 50 ug/ml by agar plate diffusion technique; assay type: functional; details: read-out: IZ
Respond numerically; units are mm and should not be typed.

Input line: # lookup: zone of inhibition at 50 µg/mL of CCOC(=O)c1cnn(-c2nc(-c3ccccc3Cl)c(C#N)c(=O)n2C)c1N
Output line: 16.3

Input line: What would you report for CCOC(=O)c1cnn(-c2nc(-c3cccs3)c(C#N)c(=O)n2C)c1N ?
Output line: 12.7

Input line: What would you report for CCOC(=O)c1cnn(-c2nc(-c3cccc(OC)c3OC)c(C#N)c(=O)n2C)c1N ?
Output line: 12.3

Input line: What would you report for CSc1nc(-c2ccccc2F)c(C#N)c(=O)n1C ?
Output line: 10.4

Input line: What would you report for CSc1nc(-c2ccccc2O)c(C#N)c(=O)n1C ?
Output line: 8.16

Input line: What would you report for CSc1nc(-c2ccc(N(C)C)cc2)c(C#N)c(=O)n1C ?
Output line: 8.52

Input line: What would you report for CCOC(=O)c1cnn(-c2nc(-c3ccc(Cl)cc3)c(C#N)c(=O)n2C)c1N ?
Output line: 17.1

Input line: What would you report for Cn1c(NN)nc(-c2ccccc2F)c(C#N)c1=O ?
Output line: 13.8

Input line: What would you report for CCOC(=O)c1cnn(-c2nc(-c3ccccc3O)c(C#N)c(=O)n2C)c1N ?
Output line: 15

Input line: What would you report for COc1ccc(-c2nc(NN)n(C)c(=O)c2C#N)cc1 ?
Output line: 6.96

Input line: What would you report for COc1cccc(-c2nc(NN)n(C)c(=O)c2C#N)c1OC ?
Output line: 8.12

Input line: What would you report for CSc1nc(-c2ccc(Cl)cc2)c(C#N)c(=O)n1C ?
Output line: 9.62

Input line: What would you report for COc1ccc(-c2nc(SC)n(C)c(=O)c2C#N)cc1 ?
Output line: 8.84

Input line: What would you report for CN(C)c1ccc(-c2nc(NN)n(C)c(=O)c2C#N)cc1 ?
Output line: 6.27

Input line: What would you report for CCOC(=O)c1cnn(-c2nc(-c3ccc(OC)cc3)c(C#N)c(=O)n2C)c1N ?
Output line: 10.2

Input line: What would you report for CN[C@@H]1[C@H](O[C@H]2[C@H](O[C@H]3[C@H](O)[C@@H](O)[C@H](N=C(N)N)[C@@H](O)[C@@H]3N=C(N)N)O[C@@H](C)[C@]2(O)C=O)O[C@@H](CO)[C@H](O)[C@H]1O ?
Output line: 18.7

Input line: What would you report for CSc1nc(-c2cccc(O)c2O)c(C#N)c(=O)n1C ?
Output line: 8.12

Input line: What would you report for CCOC(=O)c1cnn(-c2nc(-c3cccc(O)c3O)c(C#N)c(=O)n2C)c1N ?
Output line: 12.8

Input line: What would you report for Cn1c(NN)nc(-c2ccccc2O)c(C#N)c1=O ?
Output line: 9.17

Input line: What would you report for COc1cccc(-c2nc(SC)n(C)c(=O)c2C#N)c1OC ?
Output line: 8.25

Input line: What would you report for CCOC(=O)c1cnn(-c2nc(-c3ccco3)c(C#N)c(=O)n2C)c1N ?
Output line: 12.1

Input line: What would you report for CSc1nc(-c2ccccc2Cl)c(C#N)c(=O)n1C ?
Output line: 10.4

Input line: What would you report for CCOC(=O)c1cnn(-c2nc(-c3ccccc3F)c(C#N)c(=O)n2C)c1N ?
Output line: 16.1

Input line: What would you report for Cn1c(NN)nc(-c2ccc(Cl)cc2)c(C#N)c1=O ?
Output line: 10.2

Input line: What would you report for CCOC(=O)c1cnn(-c2nc(-c3ccc(N(C)C)cc3)c(C#N)c(=O)n2C)c1N ?
Output line: 11.9

Input line: What would you report for Cn1c(NN)nc(-c2ccccc2Cl)c(C#N)c1=O ?
Output line: 12.7

Input line: What would you report for Cn1c(NN)nc(-c2cccc(O)c2O)c(C#N)c1=O ?
Output line: 10.1

---

Record form. Attribute: zone of inhibition at 100 µg/mL. Fill in for each entry.
tested on: Staphylococcus aureus; assay: Antimicrobial activity against Staphylococcus aureus at 100 ug/ml by agar plate diffusion technique; assay type: functional; conditions: read-out: IZ
Respond numerically; units are mm and should not be typed.

Input line: # lookup: zone of inhibition at 100 µg/mL of CCOC(=O)c1cnn(-c2nc(-c3cccc(OC)c3OC)c(C#N)c(=O)n2C)c1N
Output line: 18.7

Input line: What would you report for CN[C@@H]1[C@H](O[C@H]2[C@H](O[C@H]3[C@H](O)[C@@H](O)[C@H](N=C(N)N)[C@@H](O)[C@@H]3N=C(N)N)O[C@@H](C)[C@]2(O)C=O)O[C@@H](CO)[C@H](O)[C@H]1O ?
Output line: 29.5

Input line: What would you report for Cn1c(NN)nc(-c2ccccc2Cl)c(C#N)c1=O ?
Output line: 19.3

Input line: What would you report for CSc1nc(-c2ccccc2F)c(C#N)c(=O)n1C ?
Output line: 20.9

Input line: What would you report for COc1ccc(-c2nc(SC)n(C)c(=O)c2C#N)cc1 ?
Output line: 14.8

Input line: What would you report for CCOC(=O)c1cnn(-c2nc(-c3ccccc3O)c(C#N)c(=O)n2C)c1N ?
Output line: 22.8

Input line: What would you report for CSc1nc(-c2ccc(N(C)C)cc2)c(C#N)c(=O)n1C ?
Output line: 9.38

Input line: What would you report for CCOC(=O)c1cnn(-c2nc(-c3ccc(OC)cc3)c(C#N)c(=O)n2C)c1N ?
Output line: 18.6

Input line: What would you report for CCOC(=O)c1cnn(-c2nc(-c3cccc(O)c3O)c(C#N)c(=O)n2C)c1N ?
Output line: 20.3

Input line: What would you report for CCOC(=O)c1cnn(-c2nc(-c3ccc(Cl)cc3)c(C#N)c(=O)n2C)c1N ?
Output line: 22

Input line: What would you report for CCOC(=O)c1cnn(-c2nc(-c3ccccc3Cl)c(C#N)c(=O)n2C)c1N ?
Output line: 24.3

Input line: What would you report for Cn1c(NN)nc(-c2cccs2)c(C#N)c1=O ?
Output line: 13.4

Input line: What would you report for CSc1nc(-c2cccs2)c(C#N)c(=O)n1C ?
Output line: 11.1

Input line: What would you report for CSc1nc(-c2ccco2)c(C#N)c(=O)n1C ?
Output line: 12.6

Input line: What would you report for Cn1c(NN)nc(-c2ccc(Cl)cc2)c(C#N)c1=O ?
Output line: 20.6

Input line: What would you report for CCOC(=O)c1cnn(-c2nc(-c3ccco3)c(C#N)c(=O)n2C)c1N ?
Output line: 17.7

Input line: What would you report for CSc1nc(-c2ccccc2O)c(C#N)c(=O)n1C ?
Output line: 11.2

Input line: What would you report for CCOC(=O)c1cnn(-c2nc(-c3cccs3)c(C#N)c(=O)n2C)c1N ?
Output line: 16.5

Input line: What would you report for CSc1nc(-c2ccc(Cl)cc2)c(C#N)c(=O)n1C ?
Output line: 15.8

Input line: What would you report for COc1cccc(-c2nc(NN)n(C)c(=O)c2C#N)c1OC ?
Output line: 15.8

Input line: What would you report for CCOC(=O)c1cnn(-c2nc(-c3ccc(N(C)C)cc3)c(C#N)c(=O)n2C)c1N ?
Output line: 16.5

---

Record form. Attribute: zone of inhibition at 25 µg/mL. Fill in for each entry.
test system: Pseudomonas aeruginosa; assay: Antimicrobial activity against Pseudomonas aeruginosa at 25 ug/ml by agar plate diffusion technique; type: functional; conditions: read-out: IZ
Respond numerically; units are mm and should not be typed.

Input line: # lookup: zone of inhibition at 25 µg/mL of COc1cccc(-c2nc(SC)n(C)c(=O)c2C#N)c1OC
Output line: 5.86

Input line: What would you report for CCOC(=O)c1cnn(-c2nc(-c3ccc(Cl)cc3)c(C#N)c(=O)n2C)c1N ?
Output line: 11.8

Input line: What would you report for Cn1c(NN)nc(-c2ccccc2F)c(C#N)c1=O ?
Output line: 9

Input line: What would you report for CN[C@@H]1[C@H](O[C@H]2[C@H](O[C@H]3[C@H](O)[C@@H](O)[C@H](N=C(N)N)[C@@H](O)[C@@H]3N=C(N)N)O[C@@H](C)[C@]2(O)C=O)O[C@@H](CO)[C@H](O)[C@H]1O ?
Output line: 13.4

Input line: What would you report for CSc1nc(-c2ccc(N(C)C)cc2)c(C#N)c(=O)n1C ?
Output line: 6.06

---

Record form. Attribute: Time. Fill in for each entry.
test system: Metaphire posthuma; experiment: Anthelmintic activity against Pheretima posthuma assessed as time taken for complete parasite paralysis at 0.5% w/v; format: functional
Respond numerically; units are min and should not be typed.

Input line: # lookup: Time of CCOC(=O)c1cnn(-c2nc(-c3ccc(N(C)C)cc3)c(C#N)c(=O)n2C)c1N
Output line: 42.87

Input line: What would you report for Cn1c(NN)nc(-c2cccc(O)c2O)c(C#N)c1=O ?
Output line: 45.65

Input line: What would you report for CSc1nc(-c2ccccc2Cl)c(C#N)c(=O)n1C ?
Output line: 40.61

Input line: What would you report for CCOC(=O)c1cnn(-c2nc(-c3ccc(OC)cc3)c(C#N)c(=O)n2C)c1N ?
Output line: 45.02

Input line: What would you report for CCOC(=O)c1cnn(-c2nc(-c3cccs3)c(C#N)c(=O)n2C)c1N ?
Output line: 43.59

Input line: What would you report for Cn1c(NN)nc(-c2ccc(Cl)cc2)c(C#N)c1=O ?
Output line: 37.67

Input line: What would you report for COc1cccc(-c2nc(NN)n(C)c(=O)c2C#N)c1OC ?
Output line: 51.42

Input line: What would you report for CCOC(=O)c1cnn(-c2nc(-c3ccc(Cl)cc3)c(C#N)c(=O)n2C)c1N ?
Output line: 34.76

Input line: What would you report for Cn1c(NN)nc(-c2ccccc2F)c(C#N)c1=O ?
Output line: 48.77

Input line: What would you report for Cn1c(NN)nc(-c2ccccc2Cl)c(C#N)c1=O ?
Output line: 45.38

Input line: What would you report for CSc1nc(-c2ccc(N(C)C)cc2)c(C#N)c(=O)n1C ?
Output line: 40.22

The origin of these recorded values is ChEMBL document CHEMBL1821590.
